Molecular target: D(2) dopamine receptor (Homo sapiens)
Conditions: Compound concentration 10 µM; call rule not given here
Outcome codes: active, inactive

compound: CC1(C)SSC(C)(C)[C@@H](NC(=O)[C@@H](N)Cc2ccc(O)cc2)C(=O)NCC(=O)N[C@@H](Cc2ccccc2)C(=O)N[C@H]1C(=O)O
assigned_category: inactive
//
compound: CCCCCNC(=O)NS(=O)(=O)c1cc([N+](=O)[O-])ccc1NC1CCCCC1
assigned_category: inactive
//
compound: FC(F)(F)c1c(N2CCC(c3ccccc3)CC2)ccn2c(CC3CC3)nnc12
assigned_category: inactive
//
compound: CCOC(=O)c1cc(C#N)c(N2CCC(C(=O)NS(=O)(=O)Cc3ccccc3)CC2)nc1C
assigned_category: inactive
//
compound: CN1C(=O)[C@@H](NC(=O)c2cc3ccccc3[nH]2)N=C(c2ccccc2)c2ccccc21
assigned_category: inactive
//
compound: O=C(Cc1ccccc1)Nc1nc2ccc(Cl)cc2c2nc(-c3ccco3)nn12
assigned_category: inactive
//
compound: CN1C2CCC1CC(OC(c1ccc(F)cc1)c1ccc(F)cc1)C2 (stereo not drawn)
assigned_category: active
//
compound: COc1ccc(C2(O)OC(=O)C(c3ccc4c(c3)OCO4)=C2Cc2cc(OC)c(OC)c(OC)c2)cc1 (stereo not drawn)
assigned_category: inactive
//
compound: CCCn1c(=O)c2[nH]c(-c3cnn(Cc4cccc(C(F)(F)F)c4)c3)nc2n(CC)c1=O
assigned_category: inactive
//
compound: Cc1cc([C@@H](C)Nc2cccc(-c3cc(C)c(C(=O)N[C@@H](C)C(=O)O)c(C)c3)c2)ccc1Cl
assigned_category: inactive
//
compound: COc1cc(-n2cnc3cc(-c4ccc(Cl)cc4)sc3c2=O)ccc1OCCN1CCCC1
assigned_category: inactive
//
compound: Cc1cccc(NC(=O)N[C@@H]2N=C(c3ccccc3)c3ccccc3N(C)C2=O)c1
assigned_category: inactive
//
compound: CCCCCCCCCCCCCCCCOC[C@H](COP(=O)([O-])OCC[N+](C)(C)C)OC(C)=O
assigned_category: inactive
//
compound: O=C1N/C(=N/c2ccccc2F)S/C1=C\c1ccc(C(=O)O)cc1
assigned_category: inactive
//
compound: CO[C@@H]1COCC[C@@H]1N[C@@H]1CC[C@@](C(=O)N2CCc3ncc(C(F)(F)F)cc3C2)(C(C)C)C1
assigned_category: inactive
//
compound: Nc1nc2c(c(N3CCNCC3)n1)CCC1=C2[C@@H]2CCCC[C@@H]2O1
assigned_category: inactive
//
compound: C[C@@H](NCCCc1cccc(C(F)(F)F)c1)c1cccc2ccccc12
assigned_category: inactive
//
compound: CSc1ccc(C(=O)N[C@@H]2CCCC[C@@H]2NC(=O)CNC(=O)c2cc(C(F)(F)F)ccc2NC(=O)NC(C)C)cc1
assigned_category: inactive
